Tested on: Ipomoea hederacea (IPOHE)
Experiment: Pre-emergence herbicidal glasshouse test (Table B1)
Assay type: in vivo
Settings: applied at 125 g/ha, evaluated after 13 days
Procedure: Seeds of a variety of test species are sown in standard soil in pots (Lolium perenne (LOLPE), Amaranthus retoflexus (AMARE), Abutilon theophrasti (ABUTH), Setaria faberi (SETFA), Echinochloa crus-galh (ECHCG), Ipomoea hederacea (IPOHE)). […] After 13 days for pre and post-emergence, the test is evaluated for the percentage damage caused to the plant. […]
Measured Quantity: PRE Application IPOHE, percentage damage on five-point scale

In [3]: df
Out[3]:
                                   compound            measured_target         result
0  Cn1nnnc1NC(=O)c1ccc(OC(F)F)c(NC(=O)c2nc(Cl)ccc2Cl)c1Cl  Ipomoea hederacea (IPOHE)   4 (4=60-79%)
1  Cn1nnnc1NC(=O)c1ccc(OC(F)(F)F)c(NC(=O)C(F)F)c1Cl  Ipomoea hederacea (IPOHE)   3 (3=40-59%)
2  COC(C)C(=O)Nc1c(OC(F)(F)F)ccc(C(=O)Nc2nnnn2C)c1Cl (stereo not shown)  Ipomoea hederacea (IPOHE)  5 (5=80-100%)

Problem: Can you look up the measured PRE Application IPOHE, percentage damage on five-point scale of `Cn1nnnc1NC(=O)c1ccc(OC(F)F)c(NC(=O)c2ccc(C(F)(F)F)cn2)c1Cl` for me?
Solution: 1 (1=0-19%)

Problem: Can you look up the measured PRE Application IPOHE, percentage damage on five-point scale of `Cn1nnnc1NC(=O)c1ccc(OC(F)F)c(NC(=O)c2cccc(Cl)n2)c1Cl` for me?
Solution: 3 (3=40-59%)

Problem: Can you look up the measured PRE Application IPOHE, percentage damage on five-point scale of `Cc1cccnc1C(=O)Nc1c(OC(F)F)ccc(C(=O)Nc2nnnn2C)c1Cl` for me?
Solution: 4 (4=60-79%)

Problem: Can you look up the measured PRE Application IPOHE, percentage damage on five-point scale of CCOC(C)C(=O)Nc1c(OC(F)(F)F)ccc(C(=O)Nc2nnnn2CC)c1Cl (stereo not shown) for me?
Solution: 5 (5=80-100%)

Problem: Can you look up the measured PRE Application IPOHE, percentage damage on five-point scale of `CCC(=O)Nc1c(OC(F)F)ccc(C(=O)Nc2nnnn2C)c1Cl` for me?
Solution: 4 (4=60-79%)

Problem: Can you look up the measured PRE Application IPOHE, percentage damage on five-point scale of `CCC(=O)Nc1c(OC(F)(F)F)ccc(C(=O)Nc2nnnn2C)c1C` for me?
Solution: 4 (4=60-79%)

Problem: Can you look up the measured PRE Application IPOHE, percentage damage on five-point scale of `CCOCCC(=O)Nc1c(OC(F)(F)F)ccc(C(=O)Nc2nnnn2CC)c1Cl` for me?
Solution: 5 (5=80-100%)
